biological target: HLA-A*02:01; assay: IEDB peptide-MHC binding, purified MHC/competitive/fluorescence; bounds were set here for any values at or beyond the usual limits of such assays; settings: source organism: Sudan ebolavirus
pIC50: −log10 of the molar value.
reportedProperty: pIC50

A selection of reference data follows.
Inquiry: Give the value of pIC50 reported for the following: IHDFIDNPL
Reply text: ≤ 3.99

Inquiry: // Input: PTLTTPENI . Output its pIC50 only.
Reply text: ≤ 3.57

---
Inquiry: Supply reported pIC50 belonging to this sequence: NSTLEVTEI
Reply text: ≤ 4.01

====

biological target: HLA-A*03:01; assay: IEDB peptide-MHC binding, purified MHC/competitive/radioactivity; filed as Kd, often an IC50 or EC50 that approximates it; bounds were set here for any values at or beyond the usual limits of such assays; conditions: source organism: Vaccinia virus WR
pKd: −log10 of the molar value.
reportedProperty: pKd

Solved entries:
Inquiry: Query pKd for YVMNIERQDY
Reply text: ≤ 4.15

Inquiry: # return recorded pKd for entry TSEKYSKGY
Reply text: ≤ 4.11

# input for lookup
Inquiry: Please report the measured pKd for GLILFVLALY
Reply text: ≤ 4.66

====

target: HLA-A*03:01; assay: IEDB peptide-MHC binding, purified MHC/competitive/radioactivity; filed as Kd, often an IC50 or EC50 that approximates it; bounds were set here for any values at or beyond the usual limits of such assays; details: source organism: Vaccinia virus WR
reportedProperty: pKd
Note on units: pKd is unitless, being -log10 of a concentration expressed in mol/L.

Known results for sequences:
Inquiry: Name the recorded pKd of the sequence listed here: DITFLRPVLK
Reply text: 6.80

Inquiry: Provide only the value of recorded pKd for KSLNRQTVSR
Reply text: 7.06

# context switch: different sequence, same pKd
Inquiry: Specify pKd for IIKLPTLFGR and stop.
Reply text: 7.05

====

target: HLA-A*02:03; test: IEDB peptide-MHC binding, purified MHC/competitive/radioactivity; filed as Kd, often an IC50 or EC50 that approximates it; bounds were set here for any values at or beyond the usual limits of such assays; conditions: source organism: Vaccinia virus WR
Kd strictly less than 300 nM = 1. Otherwise 0.

Please review the following examples before continuing.
Inquiry: Kd under 300 nM? Item: LPRPDTRHL
Reply text: 0

Inquiry: Kd under 300 nM? Item: DVGCLLTDT
Reply text: 0

Continuing:
Inquiry: I'd appreciate it if you could check whether NLILNFLDWI has Kd smaller than 300 nM.
Reply text: 1

Inquiry: Lab note: confirm whether the reported Kd for this sequence is below 300 nM, equality not counting. sequence: KAKQLCYCPA
Reply text: 1

Inquiry: Dear reviewer, please state whether VISVIFYFI has Kd strictly beneath 300 nM.
Reply text: 0

====

target: HLA-A*02:06; test: IEDB peptide-MHC binding, purified MHC/competitive/radioactivity; filed as Kd, often an IC50 or EC50 that approximates it; bounds were set here for any values at or beyond the usual limits of such assays; conditions: source organism: Vaccinia virus WR
reportedProperty: Kd

Inquiry: Report Kd, nothing else, for this sequence: IVQSVLRDI
Reply text: 1310 nM

Inquiry: Hello, please tell me recorded Kd for this one: LLVQYGAKI
Reply text: 1140 nM

Inquiry: For the sequence TLLNETAKV , report Kd.
Reply text: 11.1 nM

Further cases:
Inquiry: Indicate its recorded Kd; the sequence in question is MAGVEVRYI
Reply text: 2050 nM

Inquiry: Tell me its Kd given TVDFTDCRT as the entry.
Reply text: 339 nM

Inquiry: Specify Kd for QMYRKFSRCT and stop.
Reply text: 14700 nM

Inquiry: Return Kd (reported value) for this sequence: IASSMKGENV
Reply text: 311 nM

Inquiry: Fill in Kd for record AMIHKTYIDV
Reply text: 206 nM

Inquiry: Specify measured Kd for IAVANCVRNL .
Reply text: 9120 nM
